assay: Cytotoxicity against human U937 cells after 24 hrs by MTT assay; assay type: functional, cell-based; conditions: U-937, 24 h
Each record gets a class by IC50: 1: < 4 µM; 2: ≥ 4 µM and < 100 µM; 3: ≥ 100 µM

IN: For CC(=O)O[C@H]1CC[C@]2(C)C3=C(CC[C@H]2C1(C)C)[C@]1(C)CC[C@H]([C@H](C)CCCN2CCCCC2)[C@@]1(C)CC3 , which IC50 bin applies?
OUT: 2

IN: What about CC(=O)O[C@H]1CC[C@]2(C)C3=C(CC[C@H]2C1(C)C)[C@]1(C)CC[C@H]([C@H](C)CCCN2CCN(CCO)CC2)[C@@]1(C)CC3 ?
OUT: 2

IN: What about C[C@H](CCCNc1ccccc1)[C@H]1CC[C@@]2(C)C3=C(CC[C@]12C)[C@@]1(C)CC[C@H](O)C(C)(C)[C@@H]1CC3 ?
OUT: 3

IN: What about C[C@H](CCCN1CCN(CCO)CC1)[C@H]1CC[C@@]2(C)C3=C(CC[C@]12C)[C@@]1(C)CC[C@H](O)C(C)(C)[C@@H]1CC3 ?
OUT: 1

IN: What about C[C@H](CCCN1CCOCC1)[C@H]1CC[C@@]2(C)C3=C(CC[C@]12C)[C@@]1(C)CC[C@H](O)C(C)(C)[C@@H]1CC3 ?
OUT: 3

IN: What about COc1cc([C@@H]2c3cc4c(cc3[C@@H](O[C@@H]3O[C@@H]5CO[C@@H](C)O[C@H]5[C@H](O)[C@H]3O)[C@H]3COC(=O)[C@H]23)OCO4)cc(OC)c1O [ETOPOSIDE] ?
OUT: 1

IN: What about CC(=O)O[C@H]1CC[C@]2(C)C3=C(CC[C@H]2C1(C)C)[C@]1(C)CC[C@H]([C@H](C)CCCNc2ccccc2)[C@@]1(C)CC3 ?
OUT: 3

IN: What about CCN(CC)CCC[C@@H](C)[C@H]1CC[C@@]2(C)C3=C(CC[C@]12C)[C@@]1(C)CC[C@H](O)C(C)(C)[C@@H]1CC3 ?
OUT: 1

IN: What about CC[N+]([O-])(CC)CCC[C@@H](C)[C@H]1CC[C@@]2(C)C3=C(CC[C@]12C)[C@@]1(C)CC[C@H](OC(C)=O)C(C)(C)[C@@H]1CC3 ?
OUT: 2

IN: What about CCN(CC)CCC[C@@H](C)[C@H]1CC[C@@]2(C)C3=C(CC[C@]12C)[C@@]1(C)CC[C@H](OC(C)=O)C(C)(C)[C@@H]1CC3 ?
OUT: 2

IN: What about CC(=O)O[C@H]1CC[C@]2(C)C3=C(CC[C@H]2C1(C)C)[C@]1(C)CC[C@H]([C@H](C)CCCN2CCOCC2)[C@@]1(C)CC3 ?
OUT: 3

IN: What about C[C@H](CCCN1CCCCC1)[C@H]1CC[C@@]2(C)C3=C(CC[C@]12C)[C@@]1(C)CC[C@H](O)C(C)(C)[C@@H]1CC3 ?
OUT: 1

Data provenance is ChEMBL document CHEMBL3400026.
